assay_name: duplex melting temperature (HRM, EvaGreen); higher = more stable duplex
conditions_used: duplex concentration 7.5 µM; backbone: PS-PO (listed strand fully phosphorothioate, complement phosphodiester)
experimental_endpoint: duplex melting temperature (°C)

[
  {
    "biosequence": "CCACTAGCGGCGCCGTT",
    "experimental_endpoint": "duplex melting temperature",
    "measured_value": 74.3
  },
  {
    "biosequence": "GAACTGCCACTACCAA",
    "experimental_endpoint": "duplex melting temperature",
    "measured_value": 62.3
  },
  {
    "biosequence": "CGACATGTATGGCACAG",
    "experimental_endpoint": "duplex melting temperature",
    "measured_value": 63.8
  },
  {
    "biosequence": "GCCCGAGCATGACTGCG",
    "experimental_endpoint": "duplex melting temperature",
    "measured_value": 71.1
  },
  {
    "biosequence": "GCTGAACTAACCACCA",
    "experimental_endpoint": "duplex melting temperature",
    "measured_value": 61.3
  }
]

* * *

assay_name: duplex melting temperature (HRM, EvaGreen); higher = more stable duplex
conditions_used: duplex concentration 7.5 µM; backbone: PS-PS (both strands fully phosphorothioate)
# label = yes if duplex melting temperature >= 60 °C else no

[
  {
    "biosequence": "CGTGTGGATAATTAGCT",
    "cat": "no"
  },
  {
    "biosequence": "TTAACCTGCAATGGATC",
    "cat": "no"
  },
  {
    "biosequence": "GTCATTGTGCTTTTGC",
    "cat": "no"
  },
  {
    "biosequence": "TGTCGCACCCTACTA",
    "cat": "no"
  },
  {
    "biosequence": "TTTGGGTTAGTAAGAAGGCAGCAGTTGGGC",
    "cat": "yes"
  },
  {
    "biosequence": "CACAGCGACATGTATGG",
    "cat": "no"
  },
  {
    "biosequence": "AGAGCGCCCTGCTGCC",
    "cat": "yes"
  },
  {
    "biosequence": "TATTCTGCCAATGGAAC",
    "cat": "no"
  },
  {
    "biosequence": "GAACCGTTGATGATCTC",
    "cat": "no"
  },
  {
    "biosequence": "AATGAGGAGTGAAATGG",
    "cat": "no"
  },
  {
    "biosequence": "GAGCAGAAGGGGTTGT",
    "cat": "no"
  }
]

* * *

assay_name: duplex formation enthalpy ΔH (Van't Hoff fit of HRM Tm); higher = less exothermic duplex formation
conditions_used: temperature for dG: 50 °C; NaCl: 500 mM (unadjusted); backbone: PS-PO (listed strand fully phosphorothioate, complement phosphodiester)

[
  {
    "biosequence": "CTTTTGTGCGGGTAGC",
    "duplex formation enthalpy ΔH, kcal/mol": -67.9
  },
  {
    "biosequence": "GAACTGCCACTACCAA",
    "duplex formation enthalpy ΔH, kcal/mol": -70.8
  },
  {
    "biosequence": "GAGCAGAAGGGGTTGT",
    "duplex formation enthalpy ΔH, kcal/mol": -70.9
  }
]

* * *

assay_name: duplex formation enthalpy ΔH (Van't Hoff fit of HRM Tm); higher = less exothermic duplex formation
conditions_used: temperature for dG: 50 °C; NaCl: 500 mM (unadjusted); backbone: PS-PS (both strands fully phosphorothioate)
Entries and their duplex formation enthalpy ΔH values follow.
experimental_endpoint: duplex formation enthalpy ΔH (kcal/mol)

[
  {
    "biosequence": "CTGTAAGGCGATATGTT",
    "experimental_endpoint": "duplex formation enthalpy ΔH",
    "units_text": "kcal/mol",
    "measured_value": -73.8
  },
  {
    "biosequence": "TATTCTGCCAATGGAAC",
    "experimental_endpoint": "duplex formation enthalpy ΔH",
    "units_text": "kcal/mol",
    "measured_value": -69.8
  },
  {
    "biosequence": "AATGAGGAGTGAAATGG",
    "experimental_endpoint": "duplex formation enthalpy ΔH",
    "units_text": "kcal/mol",
    "measured_value": -72.8
  },
  {
    "biosequence": "TCTACACCGCGA",
    "experimental_endpoint": "duplex formation enthalpy ΔH",
    "units_text": "kcal/mol",
    "measured_value": -44.4
  },
  {
    "biosequence": "GCTGTGAAACAATGTAG",
    "experimental_endpoint": "duplex formation enthalpy ΔH",
    "units_text": "kcal/mol",
    "measured_value": -82.8
  },
  {
    "biosequence": "AGACATCCCATACGAGCATCCA",
    "experimental_endpoint": "duplex formation enthalpy ΔH",
    "units_text": "kcal/mol",
    "measured_value": -90.8
  },
  {
    "biosequence": "TAATTATACGAGTAGTTTCTGTCCTG",
    "experimental_endpoint": "duplex formation enthalpy ΔH",
    "units_text": "kcal/mol",
    "measured_value": -89.9
  },
  {
    "biosequence": "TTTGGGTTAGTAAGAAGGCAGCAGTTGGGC",
    "experimental_endpoint": "duplex formation enthalpy ΔH",
    "units_text": "kcal/mol",
    "measured_value": -138
  }
]

Attribution: the supplement of paper PMC9116672
